Experiment: Mouse PK evaluation, plasma, IV
Conditions: CD-1, mouse, in vivo, iv, 3 mg/kg, T1/2, Mouse 3, 3 mg/kg IV, CD-1 mice
Property name: half-life (h)
Reply numerically in h, unit not repeated.

Req: I am curious: what half-life value has been reported for CN(C)CCCn1c(N)nc2ccc3c(c21)CC(CN(C)C)O3 (single isomer, unassigned) [Compound E1] ?
Resp: 12

----------
Assay: Mouse PK evaluation, plasma, IV
Settings: CD-1, mouse, in vivo, 3 mg/kg, Plasma concentration, Mouse 2, 3 mg/kg IV, CD-1 mice, 8 h
Property name: concentration at 8 h (ng/mL)
Give the value, in units of ng/mL, as a plain number.

Req: Fill blank: measured concentration at 8 h of the molecule CN(C)CCCn1c(N)nc2ccc3c(c21)CC(CN(C)C)O3 (single isomer, unassigned) [Compound E1] is ____.
Resp: 6.2
